- System: SN12C renal
Outcome field: choose from active, inactive

Prompt: Any idea what this test logged for C[C@@H](NC(=O)Cc1cc(F)cc(F)c1)C(=O)N[C@@]1(C)N=C(c2ccccc2)c2ccccc2N(C)C1=O ?
Completion: inactive

Prompt: Any idea what this test logged for COC(=O)C(C)N1C(=O)c2ccccc2I1OC(C)=O (stereo not given) ?
Completion: inactive

Prompt: Any idea what this test logged for CC(=O)[CH-]C(=O)c1ccccc1.CC(=O)[CH-]C(=O)c1ccccc1.[O]=[U+2]=[O] ?
Completion: inactive

Prompt: Any idea what this test logged for CN1CCCC1c1cccnc1.O=C(O)c1ccccc1O.O=C([O-])c1ccccc1[OH2+].O=C([O-])c1ccccc1[OH2+].O=C([O-])c1ccccc1[OH2+].[Mn+2] (stereo not given) ?
Completion: inactive

Prompt: Any idea what this test logged for Oc1ccc2ccccc2c1-c1nnc(CCCCCCCCc2nnc(-c3c(O)ccc4ccccc34)o2)o1 ?
Completion: inactive

Prompt: Any idea what this test logged for Cc1nn(-c2ccccc2)c2c1C1C(=C(c3ccc(Cl)cc3)N2)C(=O)Nc2ccccc21 (stereo not given) ?
Completion: inactive

Prompt: Any idea what this test logged for O=C(N[C@@H]1CCCc2ccccc21)[C@H](CCC(=O)N1CCN(C2CCCCC2)CC1)N1C(=O)[C@@H](N2C(=O)OC[C@@H]2c2ccccc2)[C@H]1/C=C/c1ccccc1 ?
Completion: inactive

Prompt: Any idea what this test logged for COC(=O)c1cc(Nc2ccc(O)c3c2C(=O)c2c([N+](=O)[O-])ccc(O)c2C3=O)cc(C(=O)OC)c1 ?
Completion: inactive

Prompt: Any idea what this test logged for O=C(/C=C/N1CCN(c2cccc(C(F)(F)F)c2)CC1)c1ccc(Cl)cc1Cl ?
Completion: inactive

Prompt: Any idea what this test logged for COc1cc2c3c(n(CCCNCCO)c(=O)c2cc1OC)-c1cc2c(cc1C3=O)OCO2 ?
Completion: active

* * *

For each entry below, report its TGI value.
- Tested on: NCI/ADR-RES ovarian
- test protocol: NCI tumour cell line growth inhibition, 48 h

Prompt: Return TGI (reported value) for this compound: COC(=O)[C@H](Cc1ccccc1)NC(=O)c1csc([C@@H](C[C@H](C(C)C)N(C)C(=O)[C@@H](NC(=O)[C@H]2CCCCN2C)C2CC2)OC(C)=O)n1
Completion: > 25 µM

Prompt: Return TGI (reported value) for this compound: C=C(CCOC)CCC1CCCCC(=C)C1=O (stereo not given)
Completion: > 100 µM

Prompt: Return TGI (reported value) for this compound: CC(C)(C)n1cc(-c2ccnc(NCCNS(=O)(=O)c3ccc(Br)cc3)c2)c(-c2cccc(O)c2)n1
Completion: 4.99 µM

Prompt: Return TGI (reported value) for this compound: O=S1(=O)NNC(=NCc2ccc(F)cc2)c2ccccc21
Completion: > 100 µM

Prompt: Return TGI (reported value) for this compound: CC1CN=C(c2cccc(OCc3ccc(COc4cccc(C5=NCC(C)N5)c4)cc3)c2)N1 (stereo not given)
Completion: > 100 µM

Prompt: Return TGI (reported value) for this compound: O=C(N[C@@H]1CCCc2ccccc21)[C@H](CCC(=O)N1CCN(C2CCCCC2)CC1)N1C(=O)[C@@H](N2C(=O)OC[C@@H]2c2ccccc2)[C@H]1/C=C/c1ccccc1
Completion: 10.6 µM

Prompt: Return TGI (reported value) for this compound: COc1ccc(C[C@H]2C[C@@H](O)[C@@H](C)C/C=C/Cc3cccc(O)c3C(=O)O2)cn1
Completion: 48.8 µM

Prompt: Return TGI (reported value) for this compound: O=C1c2ccccc2-c2ccc(NC(=O)C3CCCCC3C(=O)O)cc21 (stereo not given)
Completion: > 100 µM

Prompt: Return TGI (reported value) for this compound: COc1ccc(Cn2nc(OCc3ccccn3)c3cc([N+](=O)[O-])ccc32)cc1
Completion: > 100 µM

Prompt: Return TGI (reported value) for this compound: N#CC1c2ccccc2-c2ccccc2N1C(=O)c1ccccc1 (stereo not given)
Completion: > 100 µM

Prompt: Return TGI (reported value) for this compound: O=C(OCc1ccccc1CN1CCOCC1)c1ccc(Br)cc1
Completion: > 100 µM

Prompt: Return TGI (reported value) for this compound: Cc1ccc2ccccc2c1CC1S(=O)(=O)OCCOS1(=O)=O
Completion: 72.4 µM

Prompt: Return TGI (reported value) for this compound: COc1cc(C2C(Cl)C(=O)N2c2ccc(Br)cc2)cc(I)c1O (stereo not given)
Completion: > 100 µM

Prompt: Return TGI (reported value) for this compound: COc1cc(C(c2cc3c(cc2O)OCO3)N2CCCC2)cc(OC)c1OC (stereo not given)
Completion: 56.4 µM

Prompt: Return TGI (reported value) for this compound: Cc1ccc(S(=O)(=O)Nn2c(-c3ccccc3)c(C#N)c(-c3ccc([N+](=O)[O-])cc3)c(C#N)c2=O)cc1
Completion: > 100 µM

Prompt: Return TGI (reported value) for this compound: COc1cc(C(=O)Nc2nnc(S(N)(=O)=O)s2)cc(OC)c1OC
Completion: > 100 µM

Prompt: Return TGI (reported value) for this compound: CN(C)c1ccc(/C=C(\NC(=O)c2ccccc2)C(=O)Nc2ccccc2C(=O)NN2C(=O)CSC2c2ccc(N(C)C)cc2)cc1 (stereo not given)
Completion: > 100 µM

Prompt: Return TGI (reported value) for this compound: O=C1c2ccccc2-c2cc3ccccc3c(=O)n21
Completion: > 100 µM

Prompt: Return TGI (reported value) for this compound: CC1=NN(c2nc(N)nc(/C(C#N)=C/c3ccncc3)n2)C(C)(C)C1
Completion: > 100 µM

Prompt: Return TGI (reported value) for this compound: COc1ccc(S(=O)(=O)N/N=C/C(=O)O)cc1
Completion: 1030 µM
